meta.source: patent US20060069132A1

Below, each of the compounds is paired with its reported Plant response rating, Corn value.
Test system: corn
protocol summary: Test C pre-/postemergence herbicide test
Assay type: in vivo, Zea mays
condition set: 500 g ai/ha; scale 0 to 100 (0 no effect, 100 complete control); visual, 12 to 14 days; preemergence
// return just the number, without any unit appended

CCc1nc(C(C)(C)C)sc1C(=O)Nc1cccc(C(=O)NCC2CC2)c1 ... 40

Query: Could you share which Plant response rating, Corn value was measured for "Cc1nn(C(C)(C)C)nc1C(=O)Nc1cccc(C(=S)N(C)C)c1" ?
Result: 40

Query: Plant response rating, Corn; subject: "CCn1nc(C2(C)CC2)cc1C(=O)Nc1cc(C(=O)N2CC=CC2)ccc1F"
Result: 45

Query: Query (compound): "CCNC(=S)c1cccc(NC(=O)c2nn(C(C)(C)C)nc2C)c1" ; field requested: Plant response rating, Corn
Result: 40

Query: Name the reported Plant response rating, Corn value associated with the compound CCNC(=O)c1ccc(F)c(NC(=O)C2CC(C(C)(C)C)=NN2CC)c1 (racemic)
Result: 55

----------
System: soybean
protocol summary: Test C pre-/postemergence herbicide test
Assay type: in vivo, Glycine max
condition set: postemergence, 125 g ai/ha; scale 0 to 100
measured property: Plant response rating, Soybean
The reply should be a number, written without any unit.

Guide cases for Plant response rating, Soybean, answers given:
CCn1nc(C(C)(C)C)cc1C(=O)Nc1cc(OC(F)(F)F)ccc1F ... 30
CCOC(=O)c1cccc(NC(=O)c2cc(C3(C)CC3)nn2CC)c1 ... 50

Query: Item under review: "CCNC(=O)c1cccc(NC(=O)c2cc(C(C)(C)C)nn2CCF)c1" . Reported Plant response rating, Soybean?
Result: 90

Query: // lookup Plant response rating, Soybean for "CCNC(=O)c1cccc(NC(=O)c2cc(C(C)(C)C)nn2CC)n1"
Result: 85

----------
Test system: lambsquarters
protocol summary: Test B pre-/postemergence herbicide test
Format: in vivo, Chenopodium album
condition set: Postemergence, 500 g ai/ha; visual rating after 13 to 15 days, scale 0 (no effect) to 100 (complete control)
measured property: Plant response rating, Lambsquarters
Keep the answer to the number alone.

Below are worked cases with known answers.
CCN(CC)C(=O)c1cccc(NC(=O)c2cc(C(C)(C)C)nn2CCF)c1 ... 90
CCn1nc(C(C)(C)C)cc1C(=O)Nc1cccc(C(=O)NC2CC2)c1 ... 90
CCn1nc(C(C)(C)C)cc1C(=O)Nc1cc(C(=O)OC(C)(C)C)ccc1F ... 20
CON=C(C)c1cccc(NC(=O)c2cc(C(C)(C)C)nn2C)c1 ... 90

Query: Please state recorded Plant response rating, Lambsquarters (tested on lambsquarters) of "CCN1CCc2c(NC(=O)c3cc(C(C)(C)C)nn3CC)cccc2C1=O"
Result: 80

----------
System: corn
protocol summary: Test B pre-/postemergence herbicide test
Format: in vivo, Zea mays
condition set: 500 g ai/ha; visual rating 0-100, 0 no effect, 100 complete control; preemergence
Below, each of the compounds is paired with its reported Plant response rating, Corn value.
Just the number, please, no unit attached.

CC(=O)c1cccc(NC(=O)c2sc(C(C)(C)C)nc2C)c1 [Compound 196] ... 0
CC(=NO)c1cccc(NC(=O)c2cc(C(C)(C)C)nn2C)c1 [Compound 107] ... 0
CCNC(=O)c1cccc(NC(=O)c2nn(C(C)(C)C)cc2C(F)(F)F)c1 [Compound 170] ... 0

Alright, here's another compound for you.
Query: // Plant response rating, Corn lookup, key: Cc1nn(C(C)(C)C)cc1C(=O)Nc1cccc(OC(C)C)c1 [Compound 189]
Result: 0
